Source listed as the supplement of paper PMC10567573.

B1: ZNF193 (parent)
chain: QKRYHCKECGKVFSQSAGLIQHQR

# Variants of: B1
# test: protein stability index of a GFP-peptide fusion (GPS, HEK-293T) (PSI 1-6); higher = more stable;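 further: lentivirally expressed fusions sorted by FACS into six bins by GFP to DsRed ratio, PSI derived from sequencing read proportions per bin multiplied by bin number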
# conditions: c terminus: a fixed tail appended
measured-quantity: protein stability index
# print the numeric value only

[
  {
    "residue-string": "QKAYHCKECGKVFSQSAGLIQHQR",
    "protein stability index": 3.18
  },
  {
    "residue-string": "QKRYHCKECGKVFSQSAGLIKHQR",
    "protein stability index": 2.6
  },
  {
    "residue-string": "QKRYHCKECGKVFSQSARLIQHQR",
    "protein stability index": 2.86
  },
  {
    "residue-string": "QKRYHKKECGKVFSQSAGLIQHQR",
    "protein stability index": 2.69
  },
  {
    "residue-string": "QKRYHCKECGKVFSQSAGLIQYQR",
    "protein stability index": 1.5
  },
  {
    "residue-string": "QKRYHCKECGKVFSQFAGLIQHQR",
    "protein stability index": 2.86
  }
]

Data request: Name the recorded protein stability index for QKGYHCKECGKVFSQSAGLIQHQR .
Data returned: 2.93

Data request: Then QKRYHCKECGKVFSQSAGLWQHQR ?
Data returned: 2.4

Data request: Then QKRYHCKECGKVFSQSAVLIQHQR ?
Data returned: 2.09

Data request: Then QKRYHCKECGKVFSQVAGLIQHQR ?
Data returned: 2.62

Data request: Then QKRYHCKECGKVFSQSNGLIQHQR ?
Data returned: 3.05
